Attribution: patent US20230192831A1

System Name: recombinant human GREM1 (hGREM1-His; C-terminal 10His tagged, R&D, #5190-GR) (human) (UniProt O60565)
Sequence (O60565 other isoform, or with tags, fused parts or gaps limits assumed, form in doubt): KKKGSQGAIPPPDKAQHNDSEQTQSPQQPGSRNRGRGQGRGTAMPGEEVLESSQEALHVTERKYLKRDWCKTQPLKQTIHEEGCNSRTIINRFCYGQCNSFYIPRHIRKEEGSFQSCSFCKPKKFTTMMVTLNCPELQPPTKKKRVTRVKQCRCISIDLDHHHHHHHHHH
Assay: BLI Octet, captured mAb, 100 nM GREM1 + 5 uM heparin
Measure Name: Binding Signal with 30 sec Association (nm)
Give just the numeric value; nm need not be written.

| Binder | Unit Text | Quantitative Result |
| --- | --- | --- |
| H4H6248P (antibody, human IgG4, V domains shown) VH: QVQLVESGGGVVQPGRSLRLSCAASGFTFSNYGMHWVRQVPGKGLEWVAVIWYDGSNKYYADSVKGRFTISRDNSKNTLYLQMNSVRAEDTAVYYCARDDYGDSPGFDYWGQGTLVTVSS VL: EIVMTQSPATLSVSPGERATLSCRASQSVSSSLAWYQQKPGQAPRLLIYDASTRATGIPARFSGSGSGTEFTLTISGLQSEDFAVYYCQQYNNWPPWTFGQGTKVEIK | nm | 0.04 |
| H4H6232P (antibody, human IgG4, V domains shown) VH: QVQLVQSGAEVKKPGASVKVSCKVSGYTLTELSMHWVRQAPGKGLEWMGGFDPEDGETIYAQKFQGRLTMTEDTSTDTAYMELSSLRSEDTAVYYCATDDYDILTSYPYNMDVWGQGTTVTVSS VL: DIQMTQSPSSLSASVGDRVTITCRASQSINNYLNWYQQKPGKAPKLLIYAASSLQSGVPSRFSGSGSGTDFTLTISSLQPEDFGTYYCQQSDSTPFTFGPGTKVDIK | nm | 0.06 |

Give its Binding Signal with 30 sec Association (nm) value. Item: H4H2895N (antibody, human IgG4, V domains shown) VH: EVQLVESGGGLVQPGGSLRLSCAASGFTVSSNYMSWVRQAPGKGLEWVSVIYSGGNTYYADSVKGRFTISRHNSKNTLYLQMNSLRAEDTAVYYCARDLGIKSDYWGQGTLVTVSS VL: EIVLTQSPDFQSVTPKEKVTITCRASQSIGTTLHWYQQKPDQSPKLLIKYVSQSLSGVPSRFSGSGSGTDFTLTINSLEAEDAATYYCHQSSSLPWTFGQGTKVEIK
0.22

Also H4H6246P (antibody, human IgG4, V domains shown) VH: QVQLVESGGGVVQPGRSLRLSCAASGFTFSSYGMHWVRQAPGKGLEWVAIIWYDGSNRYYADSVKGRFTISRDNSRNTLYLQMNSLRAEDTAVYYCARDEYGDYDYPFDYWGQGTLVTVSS VL: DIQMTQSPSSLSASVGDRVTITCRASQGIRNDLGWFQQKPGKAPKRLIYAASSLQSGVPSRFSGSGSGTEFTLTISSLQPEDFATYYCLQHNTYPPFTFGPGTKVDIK ?
0.06

Also H4H2889N (antibody, human IgG4, V domains shown) VH: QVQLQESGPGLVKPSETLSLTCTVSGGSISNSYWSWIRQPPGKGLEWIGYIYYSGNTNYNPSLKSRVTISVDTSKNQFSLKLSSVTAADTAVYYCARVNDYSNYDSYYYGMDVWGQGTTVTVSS VL: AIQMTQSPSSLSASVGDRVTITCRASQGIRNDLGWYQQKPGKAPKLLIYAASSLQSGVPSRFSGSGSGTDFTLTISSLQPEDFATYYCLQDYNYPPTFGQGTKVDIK ?
0.05

Also H4H6250P (antibody, human IgG4, V domains shown) VH: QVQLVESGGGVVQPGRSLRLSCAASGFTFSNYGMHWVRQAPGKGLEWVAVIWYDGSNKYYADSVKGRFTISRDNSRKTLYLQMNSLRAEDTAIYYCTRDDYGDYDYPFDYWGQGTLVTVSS VL: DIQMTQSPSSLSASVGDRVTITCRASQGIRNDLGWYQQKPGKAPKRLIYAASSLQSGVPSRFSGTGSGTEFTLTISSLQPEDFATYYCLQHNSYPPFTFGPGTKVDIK ?
0.06

Also H4H6240P (antibody, human IgG4, V domains shown) VH: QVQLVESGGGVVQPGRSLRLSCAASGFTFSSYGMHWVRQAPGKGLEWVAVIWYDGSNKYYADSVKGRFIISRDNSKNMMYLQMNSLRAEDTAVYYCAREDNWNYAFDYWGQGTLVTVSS VL: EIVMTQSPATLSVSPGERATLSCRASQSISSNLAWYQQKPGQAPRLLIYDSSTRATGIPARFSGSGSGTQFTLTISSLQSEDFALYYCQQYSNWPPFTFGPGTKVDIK ?
0.05

Also H4H6270P (antibody, human IgG4, V domains shown) VH: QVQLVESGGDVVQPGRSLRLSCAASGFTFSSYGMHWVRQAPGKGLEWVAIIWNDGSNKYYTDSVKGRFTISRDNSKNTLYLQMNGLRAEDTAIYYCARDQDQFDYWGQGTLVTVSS VL: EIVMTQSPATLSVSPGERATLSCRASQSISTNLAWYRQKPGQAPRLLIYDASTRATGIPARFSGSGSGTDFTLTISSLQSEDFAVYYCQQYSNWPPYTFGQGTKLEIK ?
0.05

Also H4H6252P (antibody, human IgG4, V domains shown) VH: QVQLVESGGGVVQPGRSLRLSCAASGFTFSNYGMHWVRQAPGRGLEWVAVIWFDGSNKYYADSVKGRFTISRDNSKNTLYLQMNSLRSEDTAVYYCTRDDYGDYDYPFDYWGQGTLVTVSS VL: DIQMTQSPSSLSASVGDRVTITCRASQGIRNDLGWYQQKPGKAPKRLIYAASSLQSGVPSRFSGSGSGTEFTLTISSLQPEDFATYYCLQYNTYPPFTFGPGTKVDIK ?
0.04

Also H4H6245P (antibody, human IgG4, V domains shown) VH: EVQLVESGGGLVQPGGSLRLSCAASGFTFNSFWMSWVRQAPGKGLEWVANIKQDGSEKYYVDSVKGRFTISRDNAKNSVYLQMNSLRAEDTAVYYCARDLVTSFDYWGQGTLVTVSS VL: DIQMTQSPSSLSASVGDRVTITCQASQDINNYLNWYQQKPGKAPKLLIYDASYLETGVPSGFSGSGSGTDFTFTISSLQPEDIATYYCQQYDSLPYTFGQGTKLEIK ?
0.02
